# measuredTarget: JAK1 (Homo sapiens)
# Construct: 5 μl of catalytic domain recombinant Kinase enzyme+Tyr peptide substrate (Invitrogen, CA); purchased Invitrogen
# Sequence (P23458 875-1153 limits assumed): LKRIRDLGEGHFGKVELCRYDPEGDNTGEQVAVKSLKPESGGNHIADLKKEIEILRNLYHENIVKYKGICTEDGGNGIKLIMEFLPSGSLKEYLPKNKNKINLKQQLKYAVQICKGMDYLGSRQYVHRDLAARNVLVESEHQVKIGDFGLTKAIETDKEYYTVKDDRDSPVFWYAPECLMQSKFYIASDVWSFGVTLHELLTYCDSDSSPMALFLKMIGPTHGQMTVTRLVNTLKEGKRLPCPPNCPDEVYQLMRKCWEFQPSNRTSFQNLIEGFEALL
# testDetails: JAK tyrosine phosphorylation activity, Z'-LYTE FRET kinase assay
# Format: biochemical
# studyConditions: catalytic domain recombinant kinase, Tyr6 peptide
readoutName: JAK1 IC50 potency class

{"compound": "CCS(=O)(=O)N1CCN(c2ccc(Nc3ncc(C(N)=O)c(NC4CC4)n3)nc2)CC1 [Compound 67]", "result": "++ (1.0 uM<IC50<0.10 uM)"}
{"compound": "CC(C)c1ccc(Nc2ncc(C(N)=O)c(NC3CC3)n2)cc1 [Compound 59]", "result": "++ (1.0 uM<IC50<0.10 uM)"}

---

# measuredTarget: JAK1 (Homo sapiens)
# Construct: 5 μl of catalytic domain recombinant Kinase enzyme+Tyr peptide substrate (Invitrogen, CA); purchased Invitrogen
# testDetails: JAK tyrosine phosphorylation activity, Z'-LYTE FRET kinase assay
# Type: biochemical
# studyConditions: catalytic domain recombinant kinase, Tyr6 peptide

{"compound": "CCS(=O)(=O)N1CCN(c2ccc(Nc3ncc(C(N)=O)c(NC4CC4)n3)cc2Cl)CC1 [Compound 43]", "JAK1 IC50 potency class": "++ (1.0 uM<IC50<0.10 uM)"}
{"compound": "CCS(=O)(=O)N1CCN(c2ccc(Nc3ncc(C(N)=O)c(NC4CC4)n3)cc2C#N)CC1 [Compound 48]", "JAK1 IC50 potency class": "++ (1.0 uM<IC50<0.10 uM)"}
{"compound": "CCOC(=O)N1CCC(c2ccc(Nc3ncc(C(N)=O)c(NC4CC4)n3)cc2)CC1 [Compound 11]", "JAK1 IC50 potency class": "++ (1.0 uM<IC50<0.10 uM)"}
{"compound": "CS(=O)(=O)N1CCN(c2c(F)cc(Nc3ncc(C(N)=O)c(NC4CC4)n3)cc2F)CC1 [Compound 49]", "JAK1 IC50 potency class": "++ (1.0 uM<IC50<0.10 uM)"}

---

# measuredTarget: full length active recombinant SYK enzyme (Homo sapiens, UniProt P43405)
# Construct: full length active recombinant SYK enzyme (Millipore, CA); purchased Millipore
# testDetails: SYK tyrosine phosphorylation activity, LANCE TR-FRET kinase assay
# Assay type: biochemical
# studyConditions: 1 nM SYK, 100 μM ATP, 1 hour at room temperature; read-out: Syk IC50 % Inhibition
readoutName: IC50

{"compoundSmiles": "NC(=O)c1cnc(NC2CC2)cc1Nc1ccc(C2CCNCC2)cc1", "IC50": "> 1000 nM"}

Query :: Quick one: IC50 for `CCS(=O)(=O)N1CCN(c2ccc(Nc3ncc(C(N)=O)c(NC4CC4)n3)nc2)CC1` ?
Result :: > 1000 nM

---

# measuredTarget: JAK3 (Homo sapiens)
# Construct: 5 μl of catalytic domain recombinant Kinase enzyme+Tyr peptide substrate (Invitrogen, CA)
# testDetails: JAK tyrosine phosphorylation activity, Z'-LYTE FRET kinase assay
# studyConditions: catalytic domain recombinant kinase, Tyr6 peptide; read-out: JAK3 IC50 % Inhibition
readoutName: IC50

Query :: Checklist item: IC50 tested on JAK3 (Homo sapiens), entry `NC(=O)c1cnc(NC2CC2)cc1Nc1ccc(C2CCNCC2)cc1` , value?
Result :: > 1000 nM

---

# measuredTarget: JAK3 (Homo sapiens, UniProt P52333)
# Construct: 5 μl of catalytic domain recombinant Kinase enzyme+Tyr peptide substrate (Invitrogen, CA); purchased Invitrogen
# Sequence (P52333 822-1111 limits assumed): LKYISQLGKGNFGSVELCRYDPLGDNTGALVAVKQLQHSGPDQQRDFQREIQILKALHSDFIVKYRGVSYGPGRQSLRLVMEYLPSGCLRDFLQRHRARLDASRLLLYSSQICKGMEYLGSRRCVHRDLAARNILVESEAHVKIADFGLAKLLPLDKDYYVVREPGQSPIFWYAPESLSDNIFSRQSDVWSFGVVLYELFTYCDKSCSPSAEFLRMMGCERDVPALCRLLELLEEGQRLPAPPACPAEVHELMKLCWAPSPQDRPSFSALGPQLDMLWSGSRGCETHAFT
# testDetails: JAK tyrosine phosphorylation activity, Z'-LYTE FRET kinase assay
# Type: biochemical
# studyConditions: catalytic domain recombinant kinase, Tyr6 peptide
# Protocol: JAK and SYK tyrosine phosphorylation activity is measured using the Z'-LYTE™ Technology developed by Invitrogen Corporation (Carlsbad, Calif.). For JAK1, JAK2 and JAK3 the Z'-LYTE™ Kinase Assay Kit-Tyr6 Peptide (part number PV4122) was used. The Z'-LYTE™ biochemical assay employs a fluorescence resonance energy transfer (FRET) coupled-enzyme format and is based on the differential sensitivity of phosphorylated and non-phosphorylated peptides to proteolitic cleavage. […]

{"compoundSmiles": "NC(=O)c1cnc(Nc2ccc(C3CCNCC3)cc2)cc1NC1CC1", "JAK3 IC50 potency class": "++ (1.0 uM<IC50<0.10 uM)"}
{"compoundSmiles": "CCS(=O)(=O)N1CCN(c2ccc(Nc3ncc(C(N)=O)c(NC4CC4)n3)nc2)CC1", "JAK3 IC50 potency class": "++ (1.0 uM<IC50<0.10 uM)"}
